tested on: CAKI-1 renal; assay: NCI-60 one-dose screen, 48 h; conditions: 10 µM unless noted
This is part of a sample that, as a whole, favours compounds with a hit. Of some 83,000 tested, about 20% had one in any assay. Activity calls are given as the source filed them. The calls were made as follows: active = growth percent below 10; inactive = the rest.
Response enum: Yes for active, No for inactive

Cc1nn(-c2ccc(Cl)cc2)c(=O)n1CCn1cnc2ccccc21 : No
COc1ccc(OCC(CO)N2CCN(c3ccccc3)CC2)cc1 (stereo not given) : No
CC(C)(C)c1nc(-c2ccc(O)c(O)c2)cs1 : No
O=C1C(Cl)=C(Nc2ccc(S(=O)(=O)c3ccc(NC4=C(Cl)C(=O)c5ccccc5C4=O)cc3)cc2)C(=O)c2ccccc21 : Yes
C=C(C)[C@@H]1CC[C@]2(C(=O)NNC(=O)c3cccnc3)CC[C@]3(C)[C@H](CC[C@@H]4[C@@]5(C)CCCNC(C)(C)[C@@H]5CC[C@]43C)[C@@H]12 : No
Cc1ccc(-c2nc([P+](c3ccccc3)(c3ccccc3)c3ccccc3)c(N3CCOCC3)o2)cc1 : No
CC(C)C[C@@H](NC(=O)[C@@H](Cc1ccccc1)NC(=O)c1cnccn1)B1O[C@H]2[C@H](O)[C@@H](C(=O)NCCCC[C@@H]3NC(=O)[C@@H](Cc4ccccc4)NC(=O)[C@H](CC(=O)O)NC(=O)CNC(=O)[C@H](CCCN=C(N)N)NC3=O)O[C@@H](CN)[C@H]2O1 : Yes
CC(Cc1ccco1)C(=O)NC(N)=O (stereo not given) : No

Hi, sorry to bother you, what did the test record for Cc1nc([P+](c2ccccc2)(c2ccccc2)c2ccccc2)c(Sc2sc(-c3ccccc3)nc2[P+](c2ccccc2)(c2ccccc2)c2ccccc2)o1 ?
No

What do you have for Fc1ccc(Nc2nc(Nc3ccc(-c4nc5ccccc5[nH]4)cc3)nc(N3CCCC3)n2)cc1 ?
No

What do you have for COC(=O)[C@]12CC[C@@H](C)[C@H](C)[C@@H]1C1=CC[C@@H]3[C@@]4(C)C[C@@H](OC(C)=O)[C@H](O)[C@@](C)(CO)[C@@H]4[C@H](O)C[C@@]3(C)[C@]1(C)CC2 ?
Yes

What do you have for Cn1cc(-c2nc(-c3c[nH]c4ncccc34)cs2)c2ccccc21 ?
No

What do you have for O=C(NCN1C(=O)c2cccc3cccc(c23)C1=O)N1CCC(Cc2ccccc2)CC1 ?
No

What do you have for CCOC(=O)C1OC1(c1ccccc1)c1ccccc1 (stereo not given) ?
No
